Cited source for all entries: patent US20100331357A1

# test_summary: Saturation solubility, shaken 18 hours at 25° C., filtered, HPLC
# Format: physicochemical
# condition_context: citric acid solution in water for injection, aqueous buffer, thermodynamic from solid, 40 mM Citric acid, water for injection, NaOH, pH 5, as free form
attribute_measured: solubility at 18 h (µg/mL)

>>> value_measured("CCS(=O)(=O)c1cccc(-c2cc(C(=O)NC3CCN(C)CC3)c(C)c3[nH]c4ncc(C)cc4c23)c1.Cl [compound A1 hydrochloride]")
100

* * *

# test_summary: Solubility by eye observation with stepwise addition of solution
# Type: physicochemical
# condition_context: solutions of solubilizers, aqueous with cosolvent or surfactant or cyclodextrin, thermodynamic from solid, solutions of solubilizers in Table 3
attribute_measured: solubility

>>> value_measured("CCS(=O)(=O)c1cccc(-c2cc(C(=O)NC3CCN(C)CC3)c(C)c3[nH]c4ncc(C)cc4c23)c1.Cl [compound A1 hydrochloride]")
"< 8000 µg/mL"
